Tested on: ddy mice
Assay: Acute toxicity
Format: in vivo
Conditions: in comparison with mitomycin C

MOLECULE | C.I. (LD50/ED50) (in words)
CO[C@@]12[C@H](COC(N)=O)C3=C(C(=O)C(C)=C(NCCSSCCC(=O)O[C@H]4CC[C@H]5[C@@H]6CCc7cc(OC(=O)c8ccccc8)ccc7[C@H]6CC[C@]45C)C3=O)N1C[C@@H]1N[C@@H]12 | superior to mitomycin C
CC1=C(NCCSSCC(=O)O[C@H]2CC[C@H]3[C@@H]4CCc5cc(OC(=O)c6ccccc6)ccc5[C@H]4CC[C@]23C)C(=O)C2=C(C1=O)N1C[C@H]3[C@H](N3C)[C@]1(O)[C@H]2COC(N)=O (stereo partly shown) | superior to mitomycin C
CO[C@@]12[C@H](COC(N)=O)C3=C(C(=O)C(C)=C(NCCSSCC(=O)O[C@H]4CC[C@H]5[C@@H]6CCc7cc(OC(=O)c8ccccc8)ccc7[C@H]6CC[C@]45C)C3=O)N1C[C@@H]1N[C@@H]12 | superior to mitomycin C

---

System: Escherichia coli ATCC 26
Experiment: Minimum inhibitory concentration, agar dilution method, EC
Assay type: cell-based
Conditions: Escherichia coli, ATCC26, pH 7, read-out: minimum inhibitory concentration, EC
MEASUREMENT_NAME: MIC (µg/mL)
Write the value in µg/mL as a bare number.

Request: I'd like to know its MIC. The compound in question is "CO[C@@]12[C@H](COC(N)=O)C3=C(C(=O)C(C)=C(NCCSSCCNC(=O)CC[C@@H](N)C(=O)O)C3=O)N1C[C@@H]1N[C@@H]12"
Result: 50

Request: Entry "CO[C@@]12[C@H](COC(N)=O)C3=C(C(=O)C(C)=C(NCCSSCCCNC(=O)CC[C@H](N)C(=O)O)C3=O)N1C[C@@H]1N[C@@H]12" please
Result: 250

---

Assay: Acute toxicity
Format: in vivo, mice (ddy)
Details: mouse, in vivo, ip; read-out: (C.I.)* = (LD50/ED50)/[(LD50/ED50) of MMC1]
MEASUREMENT_NAME: selectivity ratio
The answer should be a number; do not append a unit.

Example molecules with recorded selectivity ratio:
MOLECULE | MEASURED
CO[C@@]12[C@H](COC(N)=O)C3=C(C(=O)C(C)=C(NCCSSCCNC(=O)c4cc(=O)[nH]c(=O)[nH]4)C3=O)N1C[C@@H]1N[C@@H]12 [Compound 14] | 1.68
CC1=C(NCCSSCCNC(=O)CC[C@@H](N)C(=O)O)C(=O)C2=C(C1=O)N1C[C@H]3[C@H](N3C)[C@]1(O)[C@H]2COC(N)=O (stereo partly drawn) [Compound 11] | 1.59

# next molecule below
Request: I'd like to know its selectivity ratio. The molecule in question is CC1=C(NCCSSCC(=O)O[C@H]2CC[C@H]3[C@@H]4CCc5cc(OC(=O)c6ccccc6)ccc5[C@H]4CC[C@]23C)C(=O)C2=C(C1=O)N1C[C@H]3[C@H](N3C)[C@]1(O)[C@H]2COC(N)=O (stereo partly drawn) [Compound 28]
Result: 2.53

---

# maps each entry to its selectivity ratio
Assay: Acute toxicity
Format: in vivo, mice (ddy)
Details: mouse, in vivo, ip; read-out: (C.I.)* = (LD50/ED50)/[(LD50/ED50) of MMC1]
The answer should be a number; do not append a unit.

STRUCTURE_STRING | MEASURED
CO[C@@]12[C@H](COC(N)=O)C3=C(C(=O)C(C)=C(NCCSSCCC(N)=O)C3=O)N1C[C@@H]1N[C@@H]12 | 0.68
CO[C@@]12[C@H](COC(N)=O)C3=C(C(=O)C(C)=C(NCCSSCCNC(=O)CC[C@H](N)C(=O)O)C3=O)N1C[C@@H]1N[C@@H]12 | 2.58
CO[C@@]12[C@H](COC(N)=O)C3=C(C(=O)C(C)=C(NCCSSCCCNC(=O)CC[C@H](N)C(=O)O)C3=O)N1C[C@@H]1N[C@@H]12 | 1.52
CO[C@@]12[C@H](COC(N)=O)C3=C(C(=O)C(C)=C(NCCSSCCCCNC(=O)CC[C@H](N)C(=O)O)C3=O)N1C[C@@H]1N[C@@H]12 | 1.66
CO[C@@]12[C@H](COC(N)=O)C3=C(C(=O)C(C)=C(NCCSSCCNC(=O)CC[C@@H](N)C(=O)O)C3=O)N1C[C@@H]1N[C@@H]12 | 1.46

Request: I'd like to know its selectivity ratio. The molecule in question is "CO[C@@]12[C@H](COC(N)=O)C3=C(C(=O)C(C)=C(NCCSSCc4cn([C@H]5C[C@H](O)[C@@H](CO)O5)c(=O)[nH]c4=O)C3=O)N1C[C@@H]1N[C@@H]12"
Result: 1.37

Request: Entry "CO[C@@]12[C@H](COC(N)=O)C3=C(C(=O)C(C)=C(NCCSSCCNC(=O)C[C@H](N)C(=O)O)C3=O)N1C[C@@H]1N[C@@H]12" please
Result: 1.81

Request: Entry "CO[C@@]12[C@H](COC(N)=O)C3=C(C(=O)C(C)=C(NCCSSCC(=O)O[C@H]4CC[C@H]5[C@@H]6CCc7cc(OC(=O)c8ccccc8)ccc7[C@H]6CC[C@]45C)C3=O)N1C[C@@H]1N[C@@H]12" please
Result: 1.27

Request: Entry "CO[C@@]12[C@H](COC(N)=O)C3=C(C(=O)C(C)=C(NCCSSCCSC(C)=O)C3=O)N1C[C@@H]1N[C@@H]12" please
Result: 0.36

Request: Entry "CO[C@@]12[C@H](COC(N)=O)C3=C(C(=O)C(C)=C(NCCSSCCC(=O)O[C@H]4CC[C@H]5[C@@H]6CCc7cc(OC(=O)c8ccccc8)ccc7[C@H]6CC[C@]45C)C3=O)N1C[C@@H]1N[C@@H]12" please
Result: 1.63

---

# maps each entry to its selectivity ratio
Test: Acute toxicity
Type: in vivo, mice (ddy)
Conditions: mouse, in vivo, ip; read-out: (C.I.)* = (LD50/ED50)/[(LD50/ED50) of MMC1]
The answer should be a number; do not append a unit.

Example molecules with recorded selectivity ratio:
MOLECULE | selectivity ratio
CO[C@@]12[C@H](COC(N)=O)C3=C(C(=O)C(C)=C(NCCSSCCNC(=O)C(F)(F)F)C3=O)N1C[C@@H]1N[C@@H]12 | 0.51
CO[C@@]12[C@H](COC(N)=O)C3=C(C(=O)C(C)=C(NCCSSCCNC(=O)[C@@H]4CCCN4)C3=O)N1C[C@@H]1N[C@@H]12 | 1.17

# next molecule below
Request: I'd like to know its selectivity ratio. The molecule in question is CC1=C(NCCSSCCNC(=O)CC[C@H](N)C(=O)O)C(=O)C2=C(C1=O)N1C[C@H]3[C@H](N3C)[C@]1(O)[C@H]2COC(N)=O (some centres unmarked)
Result: 1.55

---

Assay: in vivo
Format: in vivo, mice (ddy strain)
Details: mouse, in vivo, ip; read-out: (WBC4000/ED50)* = (WBC4000/ED50)/[(WBC4000/ED50) of MMC1]
MEASUREMENT_NAME: selectivity ratio
The answer should be a number; do not append a unit.

Example compounds with recorded selectivity ratio:
COMPOUND | MEASURED
CO[C@@]12[C@H](COC(N)=O)C3=C(C(=O)C(C)=C(NCCSSCCNC(=O)[C@@H]4CCCN4)C3=O)N1C[C@@H]1N[C@@H]12 | 2.3
CC1=C(NCCSSCCC(=O)N[C@@H](CCCN)C(=O)O)C(=O)C2=C(C1=O)N1C[C@H]3[C@H](N3C)[C@]1(O)[C@H]2COC(N)=O (some centres unmarked) | 2.02
CO[C@@]12[C@H](COC(N)=O)C3=C(C(=O)C(C)=C(NCCSSCCC(N)=O)C3=O)N1C[C@@H]1N[C@@H]12 | 1.01
CC1=C(NCCSSCCNC(=O)C[C@H](N)C(=O)O)C(=O)C2=C(C1=O)N1C[C@H]3[C@H](N3C)[C@]1(O)[C@H]2COC(N)=O (some centres unmarked) | 2.5

# next compound below
Request: I'd like to know its selectivity ratio. The compound in question is CC1=C(NCCSSCCNC(=O)CC[C@H](N)C(=O)O)C(=O)C2=C(C1=O)N1C[C@H]3[C@H](N3C)[C@]1(O)[C@H]2COC(N)=O (some centres unmarked)
Result: 2.14

---

# maps each entry to its MIC
Test system: Klebsiella pneumoniae ATCC 10031
Experiment: microbe, parasite or virus in culture
Type: cell-based
Conditions: ATCC10031, pH 7, read-out: minimum inhibitory concentration, KP
Write the value in µg/mL as a bare number.

Request: I'd like to know its MIC. The molecule in question is CO[C@@]12[C@H](COC(N)=O)C3=C(C(=O)C(C)=C(NCCSSCCCCNC(=O)CC[C@H](N)C(=O)O)C3=O)N1C[C@@H]1N[C@@H]12 [Compound 5]
Result: 0.8
